# IC50 values compiled below
- TARGET ENTITY: αvβ3 (Homo sapiens, UniProt P05106+P06756)
- Construct: expressed in transfected cells; host or cells: K562
- PROTOCOL DESCRIPTION: Cell adhesion assay, K562-tr on osteopontin
- Format: cell-based
- COND: K562 transfected with αvβ3, adhesion to osteopontin, 1 hour; read-out: IC50 K562-tr Osteopontin (αvβ3)
Counter-ions that a name gives are not always drawn.
PROPERTY: IC50 (nM)

{"COMPOUND": "N=C(N)NNC(=O)c1ccc(C(=O)NC[C@H](NS(=O)(=O)c2ccccc2)C(=O)O)s1.O=C(O)C(F)(F)F", "PROPERTY": "IC50", "QUAL": "=", "OBSERVED RESULT": 1300}
{"COMPOUND": "NCCNC(=O)c1ccc(C(=O)NC[C@H](NS(=O)(=O)c2ccccc2)C(=O)O)s1 [Compound X, trifluoroacetic acid salt]", "PROPERTY": "IC50", "QUAL": ">", "OBSERVED RESULT": 10000}

* * *

- TARGET ENTITY: GP IIb-IIIa (αIIbβ3) (Homo sapiens, UniProt P05106+P08514)
- Construct: purchased Calbiochem
- Sequence (P08514 32-887 limits assumed, one chain of several): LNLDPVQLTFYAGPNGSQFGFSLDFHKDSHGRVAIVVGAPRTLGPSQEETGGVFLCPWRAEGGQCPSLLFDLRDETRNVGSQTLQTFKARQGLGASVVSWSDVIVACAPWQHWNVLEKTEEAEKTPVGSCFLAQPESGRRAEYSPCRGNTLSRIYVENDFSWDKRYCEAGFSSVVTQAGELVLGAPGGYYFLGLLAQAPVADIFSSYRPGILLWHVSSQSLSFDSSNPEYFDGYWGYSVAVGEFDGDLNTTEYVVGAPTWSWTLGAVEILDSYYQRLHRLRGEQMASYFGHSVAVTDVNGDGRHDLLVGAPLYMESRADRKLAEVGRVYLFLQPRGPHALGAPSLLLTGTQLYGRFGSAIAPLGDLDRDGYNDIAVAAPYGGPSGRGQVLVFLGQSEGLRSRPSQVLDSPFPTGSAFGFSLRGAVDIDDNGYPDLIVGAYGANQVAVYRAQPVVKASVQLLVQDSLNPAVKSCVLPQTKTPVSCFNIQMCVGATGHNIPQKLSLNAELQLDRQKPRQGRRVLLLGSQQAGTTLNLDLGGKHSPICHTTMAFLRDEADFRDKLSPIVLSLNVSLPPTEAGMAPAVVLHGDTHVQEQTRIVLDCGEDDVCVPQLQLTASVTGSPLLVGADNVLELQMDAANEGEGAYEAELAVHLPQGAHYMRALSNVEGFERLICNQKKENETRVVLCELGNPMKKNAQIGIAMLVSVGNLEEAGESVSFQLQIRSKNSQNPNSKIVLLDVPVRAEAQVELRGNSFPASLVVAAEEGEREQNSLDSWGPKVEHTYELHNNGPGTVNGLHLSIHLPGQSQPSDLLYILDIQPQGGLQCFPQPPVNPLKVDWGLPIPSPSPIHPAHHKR
- Sequence (P08514 891-1039 partner limits assumed, one chain of several): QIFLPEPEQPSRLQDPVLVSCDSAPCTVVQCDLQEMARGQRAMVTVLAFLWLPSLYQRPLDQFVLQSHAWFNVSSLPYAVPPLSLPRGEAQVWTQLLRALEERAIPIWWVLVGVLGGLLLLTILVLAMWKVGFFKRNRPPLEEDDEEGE
- PROTOCOL DESCRIPTION: Fibrinogen binding to immobilized GP IIb-IIIa (αIIbβ3)

{"COMPOUND": "NCCCNC(=O)c1ccc(C(=O)NC(CC(=O)O)c2ccccc2)s1.O=C(O)C(F)(F)F (stereo not drawn) [Compound VII, trifluoroacetic acid salt]", "IC50 (nM)": 13700}
{"COMPOUND": "Cl.N=C(N)NCCNC(=O)c1ccc(C(=O)NC[C@H](NS(=O)(=O)c2ccccc2)C(=O)O)o1 [Compound XXI, hydrochloride]", "IC50 (nM)": 931}
{"COMPOUND": "N=C(N)NCCNC(=O)c1ccc(C(=O)NCC(Nc2ncccn2)C(=O)O)s1.O=C(O)C(F)(F)F.O=C(O)C(F)(F)F (stereo not drawn) [Compound XXX, bis trifluoroacetic acid salt]", "IC50 (nM)": 690}

* * *

- Test system: HMVEC
- PROTOCOL DESCRIPTION: Cell proliferation and cytotoxicity MTT assay, HMVEC
- Format: cell-based
- COND: HMVEC, 72 hours culture
pIC50: −log10 of the molar value.
# pIC50 values compiled below

{"MOLECULE": "N=C(N)NCCCNC(=O)c1ccc(C(=O)NC(CC(=O)O)c2ccccc2)s1 (stereo not shown)", "pIC50": "< 5.00"}
{"MOLECULE": "NCCCNC(=O)c1ccc(C(=O)NC(CC(=O)O)c2ccccc2)s1.O=C(O)C(F)(F)F (stereo not shown) [Compound VII, trifluoroacetic acid salt]", "pIC50": "< 5.00"}
{"MOLECULE": "N=C(N)NCCNC(=O)c1ccc(C(=O)NCC(Nc2ncccn2)C(=O)O)s1.O=C(O)C(F)(F)F.O=C(O)C(F)(F)F (stereo not shown) [Compound XXX, bis trifluoroacetic acid salt]", "pIC50": "< 5.00"}
{"MOLECULE": "Cl.N=C(N)NCCNC(=O)c1ccc(C(=O)NC[C@H](NS(=O)(=O)c2ccccc2)C(=O)O)o1 [Compound XXI, hydrochloride]", "pIC50": 5.05}

* * *

- TARGET ENTITY: placental αvβ3 (Homo sapiens, UniProt P05106+P06756)
- Construct: placental αvβ3 at 0.5 ug/mL; from tissue; host or cells: placenta
- Sequence (P06756 31-889 limits assumed): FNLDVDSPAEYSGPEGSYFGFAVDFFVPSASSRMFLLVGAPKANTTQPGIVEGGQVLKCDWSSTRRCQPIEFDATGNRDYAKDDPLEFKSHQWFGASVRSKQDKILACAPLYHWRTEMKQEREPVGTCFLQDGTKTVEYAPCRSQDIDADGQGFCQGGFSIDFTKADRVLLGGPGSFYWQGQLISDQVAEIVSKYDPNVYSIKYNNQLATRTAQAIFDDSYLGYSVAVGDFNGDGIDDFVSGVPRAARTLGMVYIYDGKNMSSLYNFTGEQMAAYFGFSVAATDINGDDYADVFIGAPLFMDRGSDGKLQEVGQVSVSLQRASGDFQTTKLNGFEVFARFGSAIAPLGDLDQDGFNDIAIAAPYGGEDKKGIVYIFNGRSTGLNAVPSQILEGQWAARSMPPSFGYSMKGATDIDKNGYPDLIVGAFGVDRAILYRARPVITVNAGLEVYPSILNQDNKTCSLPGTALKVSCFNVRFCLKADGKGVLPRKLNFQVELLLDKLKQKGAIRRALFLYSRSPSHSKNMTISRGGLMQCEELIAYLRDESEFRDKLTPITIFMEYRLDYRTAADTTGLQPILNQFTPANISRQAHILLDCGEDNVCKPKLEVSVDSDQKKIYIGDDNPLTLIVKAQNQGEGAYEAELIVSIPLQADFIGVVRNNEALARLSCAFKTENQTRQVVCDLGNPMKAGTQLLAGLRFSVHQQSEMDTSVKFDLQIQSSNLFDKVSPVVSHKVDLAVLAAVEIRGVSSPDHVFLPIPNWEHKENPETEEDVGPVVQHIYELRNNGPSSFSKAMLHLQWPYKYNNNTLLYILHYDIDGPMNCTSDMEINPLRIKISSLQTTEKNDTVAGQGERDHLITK
- Sequence (P06756 891-1048 partner limits assumed): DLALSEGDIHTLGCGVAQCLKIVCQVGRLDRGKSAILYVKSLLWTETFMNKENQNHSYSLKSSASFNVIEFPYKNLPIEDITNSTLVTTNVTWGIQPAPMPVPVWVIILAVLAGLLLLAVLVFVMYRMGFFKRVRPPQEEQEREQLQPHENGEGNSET
- Sequence (P05106 27-788): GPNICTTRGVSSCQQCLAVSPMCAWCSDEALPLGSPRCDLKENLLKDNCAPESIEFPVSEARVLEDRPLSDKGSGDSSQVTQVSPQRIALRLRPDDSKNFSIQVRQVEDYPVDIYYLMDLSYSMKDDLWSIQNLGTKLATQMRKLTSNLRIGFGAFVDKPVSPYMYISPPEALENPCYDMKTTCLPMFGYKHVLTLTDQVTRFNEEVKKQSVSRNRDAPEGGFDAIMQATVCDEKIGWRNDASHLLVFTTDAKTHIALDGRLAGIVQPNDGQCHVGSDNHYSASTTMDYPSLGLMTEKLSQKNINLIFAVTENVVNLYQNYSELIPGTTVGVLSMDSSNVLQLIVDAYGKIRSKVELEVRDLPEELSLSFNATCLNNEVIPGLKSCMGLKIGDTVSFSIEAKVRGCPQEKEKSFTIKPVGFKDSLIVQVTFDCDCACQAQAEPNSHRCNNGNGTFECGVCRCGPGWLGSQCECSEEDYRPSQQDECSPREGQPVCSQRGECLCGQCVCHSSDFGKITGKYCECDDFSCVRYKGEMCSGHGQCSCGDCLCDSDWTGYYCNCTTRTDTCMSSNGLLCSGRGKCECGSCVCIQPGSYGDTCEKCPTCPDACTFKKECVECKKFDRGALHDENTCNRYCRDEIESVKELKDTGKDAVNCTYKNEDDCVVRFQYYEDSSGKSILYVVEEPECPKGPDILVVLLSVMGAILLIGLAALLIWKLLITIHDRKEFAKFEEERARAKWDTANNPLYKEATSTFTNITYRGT
- PROTOCOL DESCRIPTION: Fibrinogen binding to immobilized αvβ3
- COND: biotinylated-fibrinogen (10 nM) binding to immobilized αvβ3; read-out: IC50 αvβ3
pIC50: −log10 of the molar value.

{"COMPOUND": "N=C(N)NCCCNC(=O)c1ccc(C(=O)NC(CC(=O)O)c2ccccc2)s1 (stereo not shown) [Compound VIII]", "pIC50": 5.49}
